ASSAY OVERVIEW: Protein binding in human plasma at 10 uM
Type: ADME, cell-free
MEASUREMENT CONDITIONS: read-out: PPB
ASSAY ENDPOINT: fraction unbound at 10 µM

Bench note: what fraction unbound at 10 µM did CS[C@@]1(C(=O)Nc2ccc3[nH]nc(-c4ccc(OC(C)C)nc4)c3c2)CCN(CC(=O)N2CC=C(c3ccc(-c4ncn(C)n4)cc3)CC2)C1 show?
< 0.01

====

ASSAYED SYSTEM: Cytochrome P450 2C9 (Homo sapiens)
Sequence (P11712 whole entry): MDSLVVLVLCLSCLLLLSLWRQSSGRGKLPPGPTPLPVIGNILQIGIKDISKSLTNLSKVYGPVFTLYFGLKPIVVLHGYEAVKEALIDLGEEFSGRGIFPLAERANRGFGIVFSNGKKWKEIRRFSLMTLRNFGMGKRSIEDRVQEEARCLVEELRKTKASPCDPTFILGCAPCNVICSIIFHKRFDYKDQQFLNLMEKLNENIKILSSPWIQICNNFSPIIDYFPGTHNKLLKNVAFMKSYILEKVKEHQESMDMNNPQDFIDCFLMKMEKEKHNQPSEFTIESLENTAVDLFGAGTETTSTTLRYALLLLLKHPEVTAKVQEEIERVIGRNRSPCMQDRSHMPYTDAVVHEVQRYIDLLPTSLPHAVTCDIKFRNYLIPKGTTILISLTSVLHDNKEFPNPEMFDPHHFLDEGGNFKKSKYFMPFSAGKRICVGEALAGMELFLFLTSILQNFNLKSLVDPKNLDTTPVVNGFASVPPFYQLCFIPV
ASSAY OVERVIEW: Inhibition of CYP2C9 (unknown origin) co-incubated with substrate
Format: ADME
ASSAY ENDPOINT: IC50

Bench note: what IC50 did CS[C@@]1(C(=O)Nc2ccc3[nH]nc(-c4ccc(OC(C)C)nc4)c3c2)CCN(CC(=O)N2CC=C(c3ccc(-c4ncn(C)n4)cc3)CC2)C1 show?
> 5 µM

====

ASSAYED SYSTEM: hERG (KCNH2) (Homo sapiens, UniProt Q12809)
Sequence (Q12809 whole entry): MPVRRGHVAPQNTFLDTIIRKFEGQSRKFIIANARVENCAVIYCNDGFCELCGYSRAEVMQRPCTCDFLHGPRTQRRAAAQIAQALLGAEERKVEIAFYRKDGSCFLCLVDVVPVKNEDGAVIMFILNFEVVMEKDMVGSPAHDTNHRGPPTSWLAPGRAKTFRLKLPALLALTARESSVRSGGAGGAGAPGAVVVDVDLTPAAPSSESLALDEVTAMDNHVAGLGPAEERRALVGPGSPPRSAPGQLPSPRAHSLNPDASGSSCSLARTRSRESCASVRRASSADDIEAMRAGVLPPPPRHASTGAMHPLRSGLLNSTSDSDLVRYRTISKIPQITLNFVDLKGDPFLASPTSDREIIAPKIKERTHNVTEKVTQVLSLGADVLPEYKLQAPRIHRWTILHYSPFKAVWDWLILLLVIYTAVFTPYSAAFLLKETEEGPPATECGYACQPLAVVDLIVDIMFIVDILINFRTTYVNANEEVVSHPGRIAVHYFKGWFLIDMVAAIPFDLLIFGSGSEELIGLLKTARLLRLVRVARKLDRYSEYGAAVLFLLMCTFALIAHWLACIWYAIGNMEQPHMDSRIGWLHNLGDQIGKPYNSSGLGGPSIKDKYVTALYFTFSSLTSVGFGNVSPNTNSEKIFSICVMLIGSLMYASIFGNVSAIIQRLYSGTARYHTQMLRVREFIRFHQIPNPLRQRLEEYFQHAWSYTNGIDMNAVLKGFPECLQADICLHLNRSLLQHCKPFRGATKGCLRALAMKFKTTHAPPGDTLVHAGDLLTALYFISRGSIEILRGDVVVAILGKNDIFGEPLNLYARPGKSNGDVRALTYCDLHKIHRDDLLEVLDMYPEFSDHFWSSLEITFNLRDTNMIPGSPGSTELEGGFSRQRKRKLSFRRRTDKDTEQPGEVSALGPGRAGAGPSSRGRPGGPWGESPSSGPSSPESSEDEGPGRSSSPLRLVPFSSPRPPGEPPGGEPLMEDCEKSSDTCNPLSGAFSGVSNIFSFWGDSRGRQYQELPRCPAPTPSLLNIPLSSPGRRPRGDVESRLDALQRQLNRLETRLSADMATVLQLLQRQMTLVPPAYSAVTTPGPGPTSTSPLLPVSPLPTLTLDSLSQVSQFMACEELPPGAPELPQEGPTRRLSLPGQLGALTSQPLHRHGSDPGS
ASSAY OVERVIEW: Inhibition of human ERG at 1 uM by IonWork assay relative to control
inhibition at 1 µM values for the molecules below.
Give the value in % but do not write % after it.

As a guide, the following entries are already answered.
1) COc1cc(-c2n[nH]c3ccc(NC(=O)[C@]4(SC)CCN(CC(=O)N5CC=C(c6ccc(-c7ncccn7)cc6)CC5)C4)cc23)ccn1 ... 7
2) COc1cc(-c2n[nH]c3ccc(NC(=O)[C@]4(SC)CCN(CC(=O)N5CC=C(c6ccc(-c7ncn(C)n7)cc6)CC5)C4)cc23)ccn1 ... 0.8
3) CS[C@]1(C(=O)Nc2ccc3[nH]nc(-c4ccc(OC(C)C)nc4)c3c2)CCN(CC(=O)N2CC=C(c3ccc(-c4ncn(C)n4)cc3)CC2)C1 ... 6
4) CC(C)Oc1ccc(-c2n[nH]c3ccc(NC(=O)[C@]4(S(C)(=O)=O)CCN(CC(=O)N5CC=C(c6ccc(-c7ncn(C)n7)cc6)CC5)C4)cc23)cn1 ... 4

Note: attention shifts to another entry.
# returns recorded inhibition at 1 µM (system: hERG (KCNH2) (Homo sapiens, UniProt Q12809)) for CS[C@@]1(C(=O)Nc2ccc3[nH]nc(-c4ccc(OC(C)C)nc4)c3c2)CCN(CC(=O)N2CC=C(c3ccc(-c4ncn(C)n4)cc3)CC2)C1
-1.7

====

ASSAYED SYSTEM: Mitogen-activated protein kinase 3 (Homo sapiens)
Sequence (P27361 whole entry): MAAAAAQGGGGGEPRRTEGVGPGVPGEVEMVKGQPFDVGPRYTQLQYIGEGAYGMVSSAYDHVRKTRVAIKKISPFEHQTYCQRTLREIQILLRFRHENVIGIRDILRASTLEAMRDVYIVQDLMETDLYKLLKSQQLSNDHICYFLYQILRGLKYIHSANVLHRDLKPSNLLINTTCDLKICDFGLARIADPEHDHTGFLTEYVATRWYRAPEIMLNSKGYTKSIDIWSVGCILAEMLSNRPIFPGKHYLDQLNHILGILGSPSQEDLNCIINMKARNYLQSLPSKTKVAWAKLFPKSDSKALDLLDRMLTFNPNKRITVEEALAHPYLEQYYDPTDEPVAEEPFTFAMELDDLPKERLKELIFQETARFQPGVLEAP
ASSAY OVERVIEW: Inhibition of ERK1 (unknown origin) using peptide substrate measured after 45 mins by IMAP assay
IC50 values for the compounds below.
Give the value in nM but do not write nM after it.

1) CCNc1nnc(-c2ccc(C3=CCN(C(=O)CN4CC[C@@](SC)(C(=O)Nc5ccc6[nH]nc(-c7ccc(F)cc7)c6c5)C4)CC3)cc2)o1 ... 17
2) CS[C@@]1(C(=O)Nc2ccc3[nH]nc(-c4ccc(F)cc4)c3c2)CCN(CC(=O)N2CCN(c3ccc(-c4ncccn4)cc3F)CC2)C1 ... 663
3) CS[C@@]1(C(=O)Nc2ccc3[nH]nc(-c4ccc(F)cc4)c3c2)CCN(CC(=O)N2CC=C(c3ccc(-c4ncccn4)cc3F)CC2)C1 ... 135
4) CCNc1ncc(-c2ccc(C3=CCN(C(=O)CN4CC[C@@](SC)(C(=O)Nc5ccc6[nH]nc(-c7ccnc(C)c7)c6c5)C4)CC3)cc2)s1 ... 34
5) CS[C@@]1(C(=O)Nc2ccc3[nH]nc(-c4ccc(F)cc4)c3c2)CCN(CC(=O)N2CC=C(c3ccc(-c4ncccn4)cc3)CC2)C1 ... 41
6) O=C(Nc1ccc2[nH]nc(-c3ccncc3)c2c1)[C@@H]1CCN(CC(=O)N2CCN(c3ccc(-c4ncccn4)cc3)CC2)C1 ... 8
7) CS[C@@]1(C(=O)Nc2ccc3[nH]nc(-c4ccc(OC(C)C)nc4)c3c2)CCN(CC(=O)N2CC=C(c3ccc(-c4ncn(C)n4)cc3)CC2)C1 ... 20
8) CS[C@@]1(C(=O)Nc2ccc3[nH]nc(-c4ccc5c(c4)OCO5)c3c2)CCN(CC(=O)N2CC=C(c3ccc(-c4ncccn4)cc3)CC2)C1 ... 45

Bench note: what IC50 did CS[C@@]1(C(=O)Nc2ccc3[nH]nc(-c4ccc(F)cc4)c3c2)CCN(CC(=O)N2CC=C(c3nc(-c4ncccn4)cs3)CC2)C1 show?
952

Bench note: what IC50 did CS[C@@]1(C(=O)Nc2ccc3[nH]nc(-c4ccc(F)cc4)c3c2)CCN(CC(=O)N2CC=C(c3ncc(-c4ncccn4)s3)CC2)C1 show?
207

Bench note: what IC50 did COc1cc(-c2n[nH]c3ccc(NC(=O)[C@]4(SC)CCN(CC(=O)N5CC=C(c6ccc(-c7ncn(C)n7)cc6)CC5)C4)cc23)ccn1 show?
7.9

Bench note: what IC50 did CS[C@@]1(C(=O)Nc2ccc3[nH]nc(-c4ccc(OC(C)C)nc4)c3c2)CCN(CC(=O)N2CC=C(c3ccc(-c4ncccn4)cc3)CC2)C1 show?
93

Bench note: what IC50 did CC(C)Oc1ccc(-c2n[nH]c3ccc(NC(=O)[C@]4(S(C)(=O)=O)CCN(CC(=O)N5CC=C(c6ccc(-c7ncn(C)n7)cc6)CC5)C4)cc23)cn1 show?
228
